molecular target: T1, human recombinant soluble ACE2 (human, UniProt Q9BYF1 18-740); assay: ELISA screen
T1 construct: also called hrsACE2
T1 sequence (Q9BYF1 18-740 limits assumed): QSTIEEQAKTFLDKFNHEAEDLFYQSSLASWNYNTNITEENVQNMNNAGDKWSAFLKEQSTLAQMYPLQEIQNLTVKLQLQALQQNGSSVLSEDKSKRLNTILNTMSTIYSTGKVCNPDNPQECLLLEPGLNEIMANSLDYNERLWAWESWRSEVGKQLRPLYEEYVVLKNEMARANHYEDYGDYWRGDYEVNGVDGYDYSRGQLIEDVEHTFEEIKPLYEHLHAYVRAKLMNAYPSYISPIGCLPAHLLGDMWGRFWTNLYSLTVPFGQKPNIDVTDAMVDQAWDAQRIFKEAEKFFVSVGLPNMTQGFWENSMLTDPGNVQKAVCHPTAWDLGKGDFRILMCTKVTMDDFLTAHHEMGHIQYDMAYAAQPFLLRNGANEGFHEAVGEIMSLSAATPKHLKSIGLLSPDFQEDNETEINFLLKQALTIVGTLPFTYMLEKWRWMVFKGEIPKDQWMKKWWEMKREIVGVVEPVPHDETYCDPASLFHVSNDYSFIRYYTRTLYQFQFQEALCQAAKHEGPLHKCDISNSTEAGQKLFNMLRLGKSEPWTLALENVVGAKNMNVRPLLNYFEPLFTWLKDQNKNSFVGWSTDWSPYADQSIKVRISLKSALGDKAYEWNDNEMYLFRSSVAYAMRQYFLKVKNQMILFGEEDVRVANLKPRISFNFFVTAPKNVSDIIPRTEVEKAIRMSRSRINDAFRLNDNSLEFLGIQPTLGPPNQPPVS
ASSAY_METRIC: Mean normalized OD (OD)
Express your answer in OD, writing the number without its unit.

Here is how some binders turned out for Mean normalized OD.
Clec5a CRD-mouse IgG2a-Fc fusion protein (Fc fusion) HQGKCFFFSFSESPWKDSMDYCATQGSTLAIVNTPEKLKYLQDIAGIENYFIGLVRQPGEKKWRWINNSVFNGNVTNQDQNFDCVTIGLTKTYDAASCEVSYRWICEGGGSGGGSGGGS: -0.005
Klrg1 CRD-mouse IgG2a-Fc fusion protein (Fc fusion) NGSHCYYFSMEKKDWNSSLKFCADKGSHLLTFPDNQGVKLFGEYLGQDFYWIGLRNIDGWRWEGGPALSLRILTNSLIQRCGAIHRNGLQASSCEVALQWICKGGGSGGGSGGGS: -0.843

In: Quick check: Mean normalized OD of Klrb1a CRD-mouse IgG2a-Fc fusion protein (Fc fusion) ECPQDWLSHRDKCFHVSHVSNTWEEGLVDCDGKGATLMLIQDQEELRFLLDSIKEKYNSFWIGLRYTLPDMNWKWINGSTLNSDVLKITDDTENDSCAAISGDKVTFESCNSDNRWICQKGGGSGGGSGGGS ?
Out: 0

In: Here is the next binder: Lgals12_2 CRD-mouse IgG2a-Fc fusion protein (Fc fusion) CSRALPRGLWPGQVIVVRGLVLKEPKDFTLSLKDGTTHVPVTLRASFTDRTLAWVSSWGRKKLISAPFLFHPQRFFEVLLLCQEGGLKLALNGQGLGATSLDQKALEQLRELRISGNVHLYCVHCGGGSGGGSGGGS
Out: 0.031
